All values here come from patent US7326732B2.

# target: human EP2 prostanoid receptors (Homo sapiens)
# Construct: expressed in transfected cells; host or cells: HEK-293
# Sequence (P43116 whole entry): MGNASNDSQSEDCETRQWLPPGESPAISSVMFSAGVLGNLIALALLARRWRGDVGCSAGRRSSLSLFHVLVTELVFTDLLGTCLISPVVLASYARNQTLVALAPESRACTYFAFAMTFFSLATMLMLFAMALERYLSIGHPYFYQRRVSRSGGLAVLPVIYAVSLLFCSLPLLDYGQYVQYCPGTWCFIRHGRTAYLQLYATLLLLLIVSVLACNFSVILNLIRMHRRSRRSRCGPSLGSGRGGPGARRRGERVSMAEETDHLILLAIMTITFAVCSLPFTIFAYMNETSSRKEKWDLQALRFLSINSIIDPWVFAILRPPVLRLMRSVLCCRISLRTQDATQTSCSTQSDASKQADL
# test-summary: Agonist activity at recombinant human EP2 prostanoid receptors (cAMP in HEK-293 clones)
# Format: cell-based
# condition-parameters: HEK-293 stably transfected with human EP2; cAMP accumulation; read-out: pEC50 EP2 (converted)
Here, each record is paired with measured EC50 data.

[ask] # returns recorded EC50 (system: human EP2 prostanoid receptors (Homo sapiens)) for `O=C(O)CCc1cccc(NC(=O)c2ccc(-c3ccc(F)cc3)o2)c1`
[reply] < 100 nM

[ask] Give the reported EC50 for `O=C(O)/C=C/c1cccc(NC(=O)c2cccc(-c3cccc(F)c3)n2)c1` (system: human EP2 prostanoid receptors (Homo sapiens)).
[reply] < 100 nM

[ask] Item `O=C(Nc1cccc(Cc2nnn[nH]2)c1)c1ccc(-c2ccc(F)cc2)o1` with human EP2 prostanoid receptors (Homo sapiens) - EC50?
[reply] < 100 nM

[ask] Request - read-out EC50 | tested on human EP2 prostanoid receptors (Homo sapiens) | compound `O=C(O)/C=C/c1cccc(NC(=O)c2cccc(-c3cc(Cl)cc(Cl)c3)n2)c1`
[reply] < 100 nM

[ask] Please provide the recorded EC50 for `O=C(O)CCc1cccc(NC(=O)c2cccc(-c3ccc(F)cc3)n2)c1` , tested on human EP2 prostanoid receptors (Homo sapiens).
[reply] < 100 nM

Further cases:
[ask] Test system human EP2 prostanoid receptors (Homo sapiens); read-out EC50; what value for `O=C(O)/C=C/c1cccc(NC(=O)c2ccc(-c3cccc(F)c3)o2)c1` ?
[reply] < 100 nM

[ask] Find EC50 (human EP2 prostanoid receptors (Homo sapiens)) for the entry `O=C(Nc1cccc(Cc2nnn[nH]2)c1)c1cccc(-c2ccc(F)cc2)n1`
[reply] < 100 nM

[ask] Please tell me: EC50 of `O=C(O)/C=C/c1cccc(NC(=O)c2cc(-c3cc(Cl)cc(Cl)c3)ccc2F)c1` , system human EP2 prostanoid receptors (Homo sapiens)?
[reply] < 100 nM

[ask] Kindly state the measured EC50 obtained for `O=C(O)COc1cccc(NC(=O)c2cccc(-c3cccc(Cl)c3)n2)c1` with human EP2 prostanoid receptors (Homo sapiens).
[reply] < 100 nM

[ask] Missing value: EC50, human EP2 prostanoid receptors (Homo sapiens), entry `O=C(O)CCc1cccc(NC(=O)c2cccc(-c3cc(Cl)cc(Cl)c3)n2)c1` . Fill in?
[reply] < 100 nM

[ask] Reported EC50 for human EP2 prostanoid receptors (Homo sapiens), given `O=C(O)Cc1cccc(NC(=O)c2ccc(-c3ccc4[nH]ccc4c3)o2)c1` ?
[reply] < 1000 nM

[ask] Form: Entry = `O=C(O)c1cccc(CNC(=O)c2ccc(-c3ccccc3)o2)c1` | System = human EP2 prostanoid receptors (Homo sapiens) | EC50 = ____
[reply] < 1000 nM

[ask] Find EC50 (human EP2 prostanoid receptors (Homo sapiens)) for the entry `O=C(O)COc1cccc(NC(=O)c2cc(-c3cc(Cl)cc(Cl)c3)ccc2F)c1`
[reply] < 100 nM

[ask] Query for human EP2 prostanoid receptors (Homo sapiens): what EC50 does the record show for `O=C(O)Cc1cccc(NC(=O)c2cc(-c3ccccc3)ccc2Cl)c1` ?
[reply] < 100 nM

[ask] Tell me reported EC50 for `COc1ccccc1-c1ccc(C(=O)Nc2cccc(CC(=O)O)c2)o1` , tested with human EP2 prostanoid receptors (Homo sapiens).
[reply] < 1000 nM

[ask] Lookup: EC50 / human EP2 prostanoid receptors (Homo sapiens) / `O=C(O)Cc1cccc(NC(=O)c2cccc(-c3cccc(F)c3)n2)c1`
[reply] < 100 nM

[ask] What value of EC50 on human EP2 prostanoid receptors (Homo sapiens) does `O=C(O)Cc1cccc(NC(=O)c2ccc(-c3cccc(F)c3)o2)c1` have?
[reply] < 100 nM

[ask] Provide the documented EC50 with human EP2 prostanoid receptors (Homo sapiens) as the system for `O=C(O)CCc1cccc(NC(=O)c2ccc(-c3ccc(Cl)cc3)o2)c1`
[reply] < 100 nM
